# System: OVCAR-4 ovarian
# Assay notes: NCI tumour cell line growth inhibition, 48 h
# Lookup of reported GI50 keyed by entry

Recorded GI50, per entry:
COc1ccc(C2=C(c3ccccc3)C(=O)N3CCCC3C2)cc1 (stereo not given) :: 55.2 µM
CC(C)C[C@H](NC(=O)[C@@H](Cc1ccccc1)n1ccc(Nc2ccccc2)cc1=O)B(O)O :: 1.18 µM
CCN1CCN(Cc2ccc(Nc3ncc(F)c(-c4cc(F)c5nc(C)n(C(C)C)c5c4)n3)nc2)CC1 :: 6.49 µM
CC(C)n1cc(-c2ccc3c(c2)N(C)CC3)c2c(NS(=O)(=O)c3ccn(C)n3)ccnc21 :: 52.5 µM

The measured GI50 that CCOc1cc(Cl)c(C(C)NC(=O)c2cccc(OC)c2)cc1OCC (stereo not given) showed for OVCAR-4 ovarian is 17.9 µM

###

Below, each entry is listed with its recorded TGI.
# System: SK-MEL-28 melanoma
# Assay notes: NCI tumour cell line growth inhibition, 48 h

C/C=C1\Oc2ccc(OC)cc2S1(=O)=O :: > 100 µM

Record Cc1ccc(NC(=O)c2cccc(OP(=O)(Nc3ccc(C)cc3)Nc3ccc(C)cc3)c2)cc1 ; system SK-MEL-28 melanoma; TGI = > 100 µM

# NS(=O)(=O)c1ccc(N=Nc2c(O)[nH]c3ccc(C(=O)NCCCn4ccnc4)cc23)cc1 with SK-MEL-28 melanoma: TGI is > 25 µM

Query CN1N=C(c2ccncc2)OC1c1cccc(F)c1 (stereo unspecified) on SK-MEL-28 melanoma; TGI returned: > 100 µM

###

# Tested on: HS 578T breast
# Assay notes: NCI tumour cell line growth inhibition, 48 h; in the data active = GI50 below about 0.43 µM; inactive = the rest
Valid outcomes are listed here; reply with one: T (active), F (inactive)

Here are 2 compounds together with their reported answers.
CC(C)[C@@]12C[C@@H](OC(=O)COC(=O)c3ccccc3)[C@@](C)(O1)[C@@H]1CC[C@@H](C)[C@H]1[C@@H]2OC(=O)/C=C/c1ccccc1 :: T
CS(=O)(=O)Nc1cc(-c2ccc3ncc(C#N)c(Nc4ccc(F)c(Cl)c4)c3c2)cnc1Cl :: T

Request: Given NS(=O)(=O)c1ccc(N=Nc2c(O)[nH]c3ccc(C(=O)NCCCn4ccnc4)cc23)cc1 , state the outcome it received in this test.
Response: F

Request: # outcome recorded in this test, key = COc1ccccc1CNCCCN1C(=O)c2ccc3c4c(ccc(c24)C1=O)C(=O)N(CCCNCCCCNCCCN)C3=O
Response: F

Request: In this assay, the call recorded for COc1ccc(-c2nc3sccn3c2-c2ccnc(NCCNS(=O)(=O)c3ccc(C(F)(F)F)cc3)n2)cc1 was what?
Response: F

Request: Assay result, entry CCN1CCN(Cc2ccc(Nc3ncc(F)c(-c4cc(F)c5nc(C)n(C(C)C)c5c4)n3)nc2)CC1 — outcome?
Response: F

Request: Recorded test call requested for COc1ccc(-c2cc(=O)c3c(OC)c4ccoc4c(/C=C/C=O)c3o2)cc1
Response: F

###

Consider the following compounds and their measured TGI readings.
# Tested on: DMS 114 small cell lung
# Assay notes: NCI tumour cell line growth inhibition, 48 h

Below: 5 compounds and their reported TGI.
CC(=O)OC(C(=O)[O][Ge]([CH3])([CH3])[CH3])c1ccccc1 (stereo not given) :: > 100 µM
N#CCCC(C#N)(C#N)CCC#N :: > 100 µM
CN1CCS(=O)(=O)NC(Cc2ccccc2)C(=O)N2CCCC2C1=O (stereo not given) :: > 100 µM
COc1cc(C2C(C(=O)NCc3ccccc3)=C(C)NC(C)=C2C(=O)NCc2ccccc2)ccc1O :: > 100 µM
O=C1C(Cl)C(c2ccc(O)cc2)N1n1cnc2ccccc2c1=O (stereo not given) :: > 81 µM

The compound c1ccc2cc(C3NCCc4[nH]cnc43)ccc2c1 (stereo not given) , tested on DMS 114 small cell lung, showed TGI of > 100 µM

Hey, DMS 114 small cell lung data for Cc1[nH]c(=O)n2c(C)nnc2c1C(=O)O : TGI came out at > 100 µM
